Hey, just so you know, these numbers are from patent US20220306630A1.

- tgt: RORgT (Homo sapiens)
- Construct: Gal4 (fusion partner); expressed in transfected cells; host or cells: engineered Jurkat cells (Jurkat pEx/Gal/hRORγ CLBD/HYG pG5luc/blast)
- Sequence (P51449 267-516): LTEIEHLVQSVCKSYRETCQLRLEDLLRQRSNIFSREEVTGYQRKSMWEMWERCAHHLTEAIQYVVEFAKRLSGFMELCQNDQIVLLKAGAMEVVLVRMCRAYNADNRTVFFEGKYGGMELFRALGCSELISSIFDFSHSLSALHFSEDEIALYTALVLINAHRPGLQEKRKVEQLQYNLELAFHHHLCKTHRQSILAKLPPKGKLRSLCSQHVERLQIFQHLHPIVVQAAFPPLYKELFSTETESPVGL
- test-method-notes: RORgT Gal4 Luciferase Reporter Gene Assay
- Type: cell-based
- condition-summary: engineered Jurkat cells overexpressing RORgT (LBD or full length) with Gal4 Luc reporter; 18 hours at 37° C.; 40 μM to 0.67 nM; read-out: RORg_GAL4 EC50
Below, each entry is listed with its recorded pEC50.
pEC50 is a log-scale quantity: -log10 of the concentration expressed in molar.

COc1ccc(Oc2c(Cl)ccc(C(=O)N(C)CC3(O)CCN(S(C)(=O)=O)CC3)c2Cl)cc1C(C)C [Example 64] | 7.64
C=C(c1cc(Oc2c(Cl)cc(NC(=O)CC3CCN(S(C)(=O)=O)CC3)cc2Cl)cnc1OC)C(F)(F)F [Example 133] | 8.34
CC(C)(F)c1cc(Oc2c(Cl)cc(NC(=O)CC3CCN(S(C)(=O)=O)CC3)cc2Cl)cnc1OC(F)F [Example 29] | 8.24

Reported pEC50 of CC(C)c1cc(F)cc(Oc2c(Cl)cc(NC(=O)CC3CC(=O)NC(=O)C3)cc2Cl)c1 [Example 330] : 6.63

Reported pEC50 of CCS(=O)(=O)c1ccc(CC(=O)Nc2cc(Cl)c(Oc3ccc(OC)c(C(C)C)c3)c(Cl)c2)cc1 [Example 307] : 7.80
